# target_desc: CD3ε homodimer protein (human, UniProt P07766 23-126, limits assumed)
# Sequence (P07766 23-126 limits assumed): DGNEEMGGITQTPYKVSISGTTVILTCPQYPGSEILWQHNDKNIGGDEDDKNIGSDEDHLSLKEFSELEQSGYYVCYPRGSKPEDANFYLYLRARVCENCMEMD
# protocol_notes: SPR, immobilized CD3ε homodimer;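 note: biacore T200 surface plasmon resonance at 25 °C, antibody variants flowed as analytes over amine-coupled CD3ε homodimer on a CM4 chip, variant binding amount divided by that of GLS3000 antibody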
Measured ratio of amounts bound (vs GLS3000) values are reported for all entries that follow.
Output spec: single numeric token, no unit.

// below: answered binders
binder: GLS3000 H27dY (antibody, name in Kabat numbering, V domains shown, one-arm format as m2) VH: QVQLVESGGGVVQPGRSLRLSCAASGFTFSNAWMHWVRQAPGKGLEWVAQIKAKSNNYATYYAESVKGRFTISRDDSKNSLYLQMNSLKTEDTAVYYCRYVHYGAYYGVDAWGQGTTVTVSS VL: DIVMTQSPLSLPVTPGEPASISCRSSQSLVYSNRNTYLHWYQQKPGQAPRLLIYKVSNRFSGVPDRFSGSGSGTDFTLKISRVEAEDVGVYYCGQGTQVPYTFGQGTKLEIK
ratio of amounts bound (vs GLS3000): 0.64

binder: GLS3000 T92Y (antibody, name in Kabat numbering, V domains shown, one-arm format as m2) VH: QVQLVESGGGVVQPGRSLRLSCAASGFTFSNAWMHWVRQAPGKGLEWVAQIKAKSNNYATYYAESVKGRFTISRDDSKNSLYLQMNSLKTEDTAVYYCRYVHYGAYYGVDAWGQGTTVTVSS VL: DIVMTQSPLSLPVTPGEPASISCRSSQSLVHSNRNTYLHWYQQKPGQAPRLLIYKVSNRFSGVPDRFSGSGSGTDFTLKISRVEAEDVGVYYCGQGYQVPYTFGQGTKLEIK
ratio of amounts bound (vs GLS3000): 0.33

binder: GLS3000 H27dP (antibody, name in Kabat numbering, V domains shown, one-arm format as m2) VH: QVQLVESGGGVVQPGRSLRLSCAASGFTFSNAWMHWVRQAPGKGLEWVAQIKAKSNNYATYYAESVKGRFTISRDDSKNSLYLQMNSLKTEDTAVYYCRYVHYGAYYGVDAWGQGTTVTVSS VL: DIVMTQSPLSLPVTPGEPASISCRSSQSLVPSNRNTYLHWYQQKPGQAPRLLIYKVSNRFSGVPDRFSGSGSGTDFTLKISRVEAEDVGVYYCGQGTQVPYTFGQGTKLEIK
ratio of amounts bound (vs GLS3000): 0.24

binder: GLS3000 V51I (antibody, name in Kabat numbering, V domains shown, one-arm format as m2) VH: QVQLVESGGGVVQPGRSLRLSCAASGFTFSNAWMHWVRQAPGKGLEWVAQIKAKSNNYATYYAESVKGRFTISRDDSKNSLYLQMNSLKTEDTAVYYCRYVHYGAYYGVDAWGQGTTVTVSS VL: DIVMTQSPLSLPVTPGEPASISCRSSQSLVHSNRNTYLHWYQQKPGQAPRLLIYKISNRFSGVPDRFSGSGSGTDFTLKISRVEAEDVGVYYCGQGTQVPYTFGQGTKLEIK
ratio of amounts bound (vs GLS3000): 0.81

binder: GLS3000 L33A (antibody, name in Kabat numbering, V domains shown, one-arm format as m2) VH: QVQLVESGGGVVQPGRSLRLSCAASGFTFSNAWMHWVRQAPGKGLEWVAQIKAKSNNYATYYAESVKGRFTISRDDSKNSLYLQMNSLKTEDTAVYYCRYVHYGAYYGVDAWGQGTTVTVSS VL: DIVMTQSPLSLPVTPGEPASISCRSSQSLVHSNRNTYAHWYQQKPGQAPRLLIYKVSNRFSGVPDRFSGSGSGTDFTLKISRVEAEDVGVYYCGQGTQVPYTFGQGTKLEIK
ratio of amounts bound (vs GLS3000): 0.85

Could you tell me which ratio of amounts bound (vs GLS3000) is on file for GLS3000 N30Q (antibody, name in Kabat numbering, V domains shown, one-arm format as m2) VH: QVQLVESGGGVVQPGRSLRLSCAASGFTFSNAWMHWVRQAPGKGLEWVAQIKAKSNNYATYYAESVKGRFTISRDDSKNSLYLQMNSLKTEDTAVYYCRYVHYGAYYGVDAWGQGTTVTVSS VL: DIVMTQSPLSLPVTPGEPASISCRSSQSLVHSNRQTYLHWYQQKPGQAPRLLIYKVSNRFSGVPDRFSGSGSGTDFTLKISRVEAEDVGVYYCGQGTQVPYTFGQGTKLEIK ?
0.87

Quick one: ratio of amounts bound (vs GLS3000) for GLS3000 G89D (antibody, name in Kabat numbering, V domains shown, one-arm format as m2) VH: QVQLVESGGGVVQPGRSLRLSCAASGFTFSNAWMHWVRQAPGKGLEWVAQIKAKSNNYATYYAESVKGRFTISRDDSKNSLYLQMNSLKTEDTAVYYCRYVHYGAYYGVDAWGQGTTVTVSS VL: DIVMTQSPLSLPVTPGEPASISCRSSQSLVHSNRNTYLHWYQQKPGQAPRLLIYKVSNRFSGVPDRFSGSGSGTDFTLKISRVEAEDVGVYYCDQGTQVPYTFGQGTKLEIK ?
0.33

Item under review: GLS3000 N53R (antibody, name in Kabat numbering, V domains shown, one-arm format as m2) VH: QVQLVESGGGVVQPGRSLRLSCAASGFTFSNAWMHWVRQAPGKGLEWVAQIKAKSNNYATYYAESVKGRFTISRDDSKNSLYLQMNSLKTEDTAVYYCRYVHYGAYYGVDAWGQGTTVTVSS VL: DIVMTQSPLSLPVTPGEPASISCRSSQSLVHSNRNTYLHWYQQKPGQAPRLLIYKVSRRFSGVPDRFSGSGSGTDFTLKISRVEAEDVGVYYCGQGTQVPYTFGQGTKLEIK . Reported ratio of amounts bound (vs GLS3000)?
1.58

Param item = GLS3000 V94W (antibody, name in Kabat numbering, V domains shown, one-arm format as m2) VH: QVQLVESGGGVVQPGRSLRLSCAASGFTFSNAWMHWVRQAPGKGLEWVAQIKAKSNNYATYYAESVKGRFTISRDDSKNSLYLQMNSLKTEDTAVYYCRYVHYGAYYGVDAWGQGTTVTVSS VL: DIVMTQSPLSLPVTPGEPASISCRSSQSLVHSNRNTYLHWYQQKPGQAPRLLIYKVSNRFSGVPDRFSGSGSGTDFTLKISRVEAEDVGVYYCGQGTQWPYTFGQGTKLEIK ; retrieve measured ratio of amounts bound (vs GLS3000).
0.58

Field request: ratio of amounts bound (vs GLS3000) | item: GLS3000 N30G (antibody, name in Kabat numbering, V domains shown, one-arm format as m2) VH: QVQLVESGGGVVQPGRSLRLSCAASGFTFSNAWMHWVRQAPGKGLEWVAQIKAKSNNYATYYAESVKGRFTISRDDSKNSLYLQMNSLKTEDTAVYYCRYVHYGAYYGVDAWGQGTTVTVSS VL: DIVMTQSPLSLPVTPGEPASISCRSSQSLVHSNRGTYLHWYQQKPGQAPRLLIYKVSNRFSGVPDRFSGSGSGTDFTLKISRVEAEDVGVYYCGQGTQVPYTFGQGTKLEIK
0.47
